Target: pWT PDZ2 L391F (human) (UniProt Q12959)
Sequence (Q12959 311-407, change not shown): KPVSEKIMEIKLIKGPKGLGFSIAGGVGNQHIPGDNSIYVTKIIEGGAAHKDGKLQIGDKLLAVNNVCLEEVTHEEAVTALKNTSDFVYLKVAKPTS
Experiment: stopped-flow spectroscopy
Ends that are not written are not given here.
property-measured: koff (s⁻¹)

Example entries and their recorded answers appear below.
Ac-EKKHTLL [EKKHTLL peptide (C-terminus of E9PN86_HUMAN, partial transcript of EIF3M_HUMAN)]    7.1
SARSTDV [SARSTDV peptide (C-terminus of anoctamin-9)]    4
Ac-PGKETQL [PGKETQL peptide (C-terminus of SO1C1_HUMAN)]    5
Ac-TSRETDL [TSRETDL peptide (C-terminus of potassium voltage-gated channel subfamily A member 5, Kv1.5)]    3.8

a = Ac-VSKETPL [VSKETPL peptide (C-terminus of mitogen-activated protein kinase 12, p38γ)]
b = Ac-RSISTDV [RSISTDV peptide (C-terminus of protein FAM163B)]
c = Ac-NSKETVV [NSKETVV peptide (C-terminus of E3 ubiquitin-protein ligase MARCH3)]
d = Ac-YRRESAI [YRRESAI peptide (C-terminus of inward rectifier potassium channel 4, Kir2.3)]
e = Ac-KRKETLV [KRKETLV peptide (C-terminus of neuroepithelial cell-transforming gene 1 protein, Net1)]
Inquiry: List by increasing koff. List labels; respect the requested ordering.
Reply text: e, c, b, a, d
